Reported GI50 values follow for various compounds
tested on: MCF7; assay: Growth inhibition of estrogen-sensitive human MCF7 cells after 72 hrs by MTT assay; format: functional; conditions: MCF7, 72 h
# output: bare number, implied unit µM

I am curious: what GI50 value has been reported for CCn1ccc2c3c(Cn4cncn4)cc(-c4ccccc4)nc3ccc21 ?
23

I am curious: what GI50 value has been reported for COc1cccc(-c2cc(=O)c3ccc4[nH]ccc4c3[nH]2)c1 ?
0.81

I am curious: what GI50 value has been reported for CCOC(=O)c1cc(-c2ccccc2)nc2c1ccc1c2ccn1CC ?
18.5

I am curious: what GI50 value has been reported for c1ccc(-c2cc(Cn3ccnc3)c3ccc4[nH]ccc4c3n2)cc1 ?
23.3

* * *

Reported GI50 values follow for various compounds
test system: HeLa; assay: Growth inhibition of non-estrogen-sensitive human HeLa cells after 72 hrs by MTT assay; assay type: functional

{"compound": "COc1ccc(-c2cc(Cn3cncn3)c3ccc4[nH]ccc4c3n2)cc1", "GI50": "> 100 µM"}

I am curious: what GI50 value has been reported for N#Cc1ccc(C(c2ccc(C#N)cc2)n2cncn2)cc1 [LETROZOLE] ?
> 100 µM

I am curious: what GI50 value has been reported for Cc1cc(Cn2ccnc2)c2ccc3[nH]ccc3c2n1 ?
> 100 µM

I am curious: what GI50 value has been reported for c1ccc(-c2cc(Cn3ccnc3)c3ccc4[nH]ccc4c3n2)cc1 ?
21.2 µM

* * *

Reported GI50 values follow for various compounds
system: HT-29; assay: Growth inhibition of non-estrogen-sensitive human HT-29 cells after 72 hrs by MTT assay; type: functional; details: HT-29, 72 h
# output: bare number, implied unit µM

{"smiles.repr": "CCn1ccc2c3c(Cn4ccnc4)cc(-c4ccccc4)nc3ccc21", "GI50 / µM": 15}

I am curious: what GI50 value has been reported for COc1cccc(-c2cc(=O)c3ccc4[nH]ccc4c3[nH]2)c1 ?
17.7

* * *

Reported IC50 values follow for various compounds
Molecular target: Steroid 17-alpha-hydroxylase/17,20 lyase (Homo sapiens)
Sequence (P05093 whole entry): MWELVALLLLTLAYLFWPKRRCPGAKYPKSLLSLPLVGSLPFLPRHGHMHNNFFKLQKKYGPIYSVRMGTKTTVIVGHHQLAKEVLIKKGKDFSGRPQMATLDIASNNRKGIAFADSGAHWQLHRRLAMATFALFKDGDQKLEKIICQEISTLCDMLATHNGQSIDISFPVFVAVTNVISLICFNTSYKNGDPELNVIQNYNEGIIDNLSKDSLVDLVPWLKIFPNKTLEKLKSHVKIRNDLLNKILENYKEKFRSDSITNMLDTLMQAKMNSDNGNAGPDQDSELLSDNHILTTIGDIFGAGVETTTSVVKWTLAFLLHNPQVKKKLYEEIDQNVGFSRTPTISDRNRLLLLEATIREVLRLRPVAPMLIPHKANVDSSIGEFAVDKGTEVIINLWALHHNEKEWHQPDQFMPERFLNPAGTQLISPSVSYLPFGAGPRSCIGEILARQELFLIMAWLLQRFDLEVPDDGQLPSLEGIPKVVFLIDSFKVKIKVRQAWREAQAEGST

Please review the entries below; each comes with its answer.
{"smiles.repr": "CCn1ccc2c3c(Cn4cncn4)cc(-c4ccccc4)nc3ccc21", "IC50": "> 5 µM"}
{"smiles.repr": "Cc1cc(Cn2ccnc2)c2ccc3[nH]ccc3c2n1", "IC50": "> 5 µM"}

Now look at this one.
I am curious: what IC50 value has been reported for COc1ccc(-c2cc(Cn3cncn3)c3ccc4[nH]ccc4c3n2)cc1 ?
> 5 µM
